# tgt: UniProt:Q9NWZ3
# Sequence (Q9NWZ3 1-460): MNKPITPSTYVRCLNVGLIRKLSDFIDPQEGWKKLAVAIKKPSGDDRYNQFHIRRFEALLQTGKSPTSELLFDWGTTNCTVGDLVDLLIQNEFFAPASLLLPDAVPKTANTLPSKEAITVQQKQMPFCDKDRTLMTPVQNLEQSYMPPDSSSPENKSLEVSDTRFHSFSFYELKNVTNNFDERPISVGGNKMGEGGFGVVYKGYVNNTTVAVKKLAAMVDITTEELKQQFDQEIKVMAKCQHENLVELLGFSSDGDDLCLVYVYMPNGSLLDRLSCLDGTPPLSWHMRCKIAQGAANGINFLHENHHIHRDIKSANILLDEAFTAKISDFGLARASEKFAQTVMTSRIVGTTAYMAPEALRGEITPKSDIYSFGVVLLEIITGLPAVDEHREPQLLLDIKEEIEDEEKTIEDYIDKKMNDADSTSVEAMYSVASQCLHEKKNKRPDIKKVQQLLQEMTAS
# measurement.description: OCI-LY-10 degradation assay (western blot, % IRAK4 degraded after 4 hours)
# Type: cell-based
# Design: endogenous in cells; host or cells: OCI-LY10
# assay.conditions: OCI-LY10 cells, 4 hours, 0.1 uM compound
readout.type: OCI-LY10 % IRAK4 Degradation (0.1 uM)

Quick note, OCI-LY10 % IRAK4 Degradation (0.1 uM) for O=C1CCC(N2C(=O)c3ccc(N4CCN(CCOCCOCCNCc5ccc(-n6cc(NC(=O)c7coc(-c8ccnc(NCC9CC9)c8)n7)c(C(F)F)n6)cc5)CC4)cc3C2=O)C(=O)N1 (centres unmarked) [I-337] landed at A (>50% degradation)

Quick note, OCI-LY10 % IRAK4 Degradation (0.1 uM) for NC(=O)c1nn(-c2ccc(C(=O)NCCOCCOCCCc3cccc4c3C(=O)N(C3CCC(=O)NC3=O)C4=O)cc2)cc1NC(=O)c1coc(-c2ccnc(NCC(F)(F)F)c2)n1 (centres unmarked) [I-233] landed at A (>50% degradation)

Quick note, OCI-LY10 % IRAK4 Degradation (0.1 uM) for O=C1CCC(N2C(=O)c3cccc(NCCOCCOCCNC(=O)c4ccc(-n5cc(NC(=O)c6coc(-c7ccnc(NCC8CC8)c7)n6)c(C(F)F)n5)cc4)c3C2=O)C(=O)N1 (centres unmarked) [I-246] landed at A (>50% degradation)
